- tgt: T1, Cynomolgus SLC34A2 (Cynomolgus, UniProt A0A2K5UHY1 1-690)
- T1 construct: whole, on cells; also called Cyno SLC34A2
- T1 sequence: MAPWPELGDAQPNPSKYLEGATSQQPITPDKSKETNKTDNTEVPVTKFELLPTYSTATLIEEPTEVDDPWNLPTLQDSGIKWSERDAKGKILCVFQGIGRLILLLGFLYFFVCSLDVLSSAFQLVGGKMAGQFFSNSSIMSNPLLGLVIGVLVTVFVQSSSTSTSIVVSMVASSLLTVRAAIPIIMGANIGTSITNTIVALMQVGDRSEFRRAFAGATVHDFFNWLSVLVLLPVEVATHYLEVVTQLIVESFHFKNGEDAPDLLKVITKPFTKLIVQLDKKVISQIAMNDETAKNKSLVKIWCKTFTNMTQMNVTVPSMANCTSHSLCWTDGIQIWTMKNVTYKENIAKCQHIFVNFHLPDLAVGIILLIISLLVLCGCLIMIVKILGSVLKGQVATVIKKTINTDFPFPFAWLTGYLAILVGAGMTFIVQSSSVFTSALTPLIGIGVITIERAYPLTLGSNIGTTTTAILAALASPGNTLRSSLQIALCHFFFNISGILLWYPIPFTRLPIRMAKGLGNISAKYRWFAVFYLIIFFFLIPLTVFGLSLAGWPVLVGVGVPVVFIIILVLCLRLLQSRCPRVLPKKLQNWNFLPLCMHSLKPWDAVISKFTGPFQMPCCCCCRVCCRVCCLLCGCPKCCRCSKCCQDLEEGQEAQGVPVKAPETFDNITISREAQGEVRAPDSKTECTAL
- test-protocol: FACS, cells expressing Cynomolgus SLC34A2
observed-property: EC50 (nM)
Only the number, expressed in nM, is required.

Qu. Give the reported EC50 for this binder. xi94B10A8 hIgG1 (antibody, V domains shown, chimeric, hIgG1) VH: QVQLQQTGAELVKPGASVKMSCKASGYTFTGYIIHWIKQRPGQGLEWIGAIYPGNGDTSYNQKIKGRATLTADKSSTTAYMQLSSLTSEDSAVYYCARGDYGNPAWFAYWGQGTLVTVSA VL: DVVLTQSPATLSVTPGDRVSLSCRASQSISNYLYWYQQKAHESPRLLIKFASQSISGIPSRFRGSGSGTDFTLSINSVETEDFGMYFCQQSNKWPLTFGAGTKLELK
Ans. 5.47
